Would you kindly list Percent Inhibition for each of these compounds?
# assay.target: recombinant human SAE enzyme (Homo sapiens)
# Sequence (Q9UBT2 whole entry): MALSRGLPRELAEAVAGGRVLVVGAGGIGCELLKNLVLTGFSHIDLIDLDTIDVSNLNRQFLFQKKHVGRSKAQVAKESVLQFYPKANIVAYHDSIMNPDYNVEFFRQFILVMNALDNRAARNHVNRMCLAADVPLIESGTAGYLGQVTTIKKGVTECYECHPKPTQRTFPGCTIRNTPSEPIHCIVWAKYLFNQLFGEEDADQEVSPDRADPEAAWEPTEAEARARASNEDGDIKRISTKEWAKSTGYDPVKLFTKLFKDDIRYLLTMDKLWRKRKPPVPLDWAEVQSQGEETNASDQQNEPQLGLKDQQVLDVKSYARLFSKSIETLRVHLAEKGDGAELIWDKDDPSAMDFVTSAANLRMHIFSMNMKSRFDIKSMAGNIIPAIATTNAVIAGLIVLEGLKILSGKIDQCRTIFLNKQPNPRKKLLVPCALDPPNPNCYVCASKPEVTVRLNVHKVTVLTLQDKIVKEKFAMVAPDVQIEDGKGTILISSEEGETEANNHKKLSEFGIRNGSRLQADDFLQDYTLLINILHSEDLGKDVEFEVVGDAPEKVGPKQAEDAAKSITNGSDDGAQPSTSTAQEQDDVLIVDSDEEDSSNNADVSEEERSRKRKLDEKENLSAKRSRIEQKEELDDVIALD
# Sequence (Q9UBE0 whole entry partner): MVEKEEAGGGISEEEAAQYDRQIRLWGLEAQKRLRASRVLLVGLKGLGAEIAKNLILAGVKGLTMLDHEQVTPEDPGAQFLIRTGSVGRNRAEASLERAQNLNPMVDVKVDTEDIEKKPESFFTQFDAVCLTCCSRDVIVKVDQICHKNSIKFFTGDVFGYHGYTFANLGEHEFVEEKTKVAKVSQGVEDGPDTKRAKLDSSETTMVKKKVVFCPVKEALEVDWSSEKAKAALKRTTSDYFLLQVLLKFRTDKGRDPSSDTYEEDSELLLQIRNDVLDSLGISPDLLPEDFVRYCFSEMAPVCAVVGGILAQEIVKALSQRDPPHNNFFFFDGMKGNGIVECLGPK
# method.description: SAE HTRF Enzyme Assay
# Type: biochemical
# settings: compound concentration 0.111 μM; 0.111 µM
Unit % implied. Number only.

In: Any idea what its Percent Inhibition is? The compound is CC(c1cccc(Br)c1)n1ccc(C(=O)c2cncnc2N[C@@H]2C[C@H](COS(N)(=O)=O)[C@@H](O)C2)n1 (single isomer, unassigned) [Compound I-358]
Out: 95

In: Any idea what its Percent Inhibition is? The compound is CC(c1cccc(Br)c1)n1ccc(C(=O)c2cncnc2N[C@@H]2C[C@H](COS(N)(=O)=O)[C@@H](O)[C@@H]2F)c1 (single isomer, unassigned) [Compound I-363]
Out: 100

In: Any idea what its Percent Inhibition is? The compound is Cc1cc(C(=O)c2cncnc2N[C@@H]2C[C@H](COS(N)(=O)=O)[C@@H](O)C2)nn1C(C)c1cccc(Cl)c1 (single isomer, unassigned) [Compound I-365]
Out: 79

In: Any idea what its Percent Inhibition is? The compound is CC(c1cccc(Cl)c1)n1ccc(C(=O)c2cncnc2N[C@@H]2C[C@H](COS(N)(=O)=O)[C@@H](O)C2)n1 (single isomer, unassigned) [Compound I-360]
Out: 99

In: Any idea what its Percent Inhibition is? The compound is CC(c1cccc(Br)n1)n1ccc(C(=O)c2cncnc2N[C@@H]2C[C@H](COS(N)(=O)=O)[C@@H](O)C2)n1 (single isomer, unassigned) [Compound I-65]
Out: 99
